Assay: Inhibition of human CES2A using fluorescein diacetate as substrate preincubated for 3 mins followed by substrate addition measured after 30 mins by fluorescence based assay
pIC50: −log10 of the molar value.
Experimental Endpoint: pIC50

smiles_repr=CCN(C)C(=O)Oc1ccc(CCC(=O)N2CCc3ccccc3C2)cc1OC numeric_value=8.22
smiles_repr=COc1cc(CCC(=O)N2CCC(Cc3ccccc3)CC2)ccc1OC(=O)N1CCOCC1 numeric_value=8.14
smiles_repr=CCN(CC)C(=O)Oc1ccc(CCC(=O)N2CCC(Cc3ccccc3)CC2)cc1OC numeric_value=7.47
smiles_repr=CCN(C)C(=O)Oc1ccc(C(=O)N2CCN(Cc3ccccc3)CC2)cc1OC numeric_value=8.23
smiles_repr=CCN(C)C(=O)Oc1ccc(C(=O)N2CCC(C(=O)c3ccc(F)cc3)CC2)cc1OC numeric_value=7.99

###

Experiment: Apparent permeability across apical to basal side in human Caco-2 cells at 100 uM incubated for 120 mins by UPLC-MS/MS analysis
Format: ADME, cell-based
Experimental Endpoint: Papp A→B at 2 h, 100 µM (×10⁻⁶ cm/s)

smiles_repr=CCN(C)C(=O)Oc1ccc(C(=O)N2CCC(Cc3ccccc3)CC2)cc1OC numeric_value=11.7

###

Target: Cholinesterase (Homo sapiens)
Sequence (P06276 whole entry): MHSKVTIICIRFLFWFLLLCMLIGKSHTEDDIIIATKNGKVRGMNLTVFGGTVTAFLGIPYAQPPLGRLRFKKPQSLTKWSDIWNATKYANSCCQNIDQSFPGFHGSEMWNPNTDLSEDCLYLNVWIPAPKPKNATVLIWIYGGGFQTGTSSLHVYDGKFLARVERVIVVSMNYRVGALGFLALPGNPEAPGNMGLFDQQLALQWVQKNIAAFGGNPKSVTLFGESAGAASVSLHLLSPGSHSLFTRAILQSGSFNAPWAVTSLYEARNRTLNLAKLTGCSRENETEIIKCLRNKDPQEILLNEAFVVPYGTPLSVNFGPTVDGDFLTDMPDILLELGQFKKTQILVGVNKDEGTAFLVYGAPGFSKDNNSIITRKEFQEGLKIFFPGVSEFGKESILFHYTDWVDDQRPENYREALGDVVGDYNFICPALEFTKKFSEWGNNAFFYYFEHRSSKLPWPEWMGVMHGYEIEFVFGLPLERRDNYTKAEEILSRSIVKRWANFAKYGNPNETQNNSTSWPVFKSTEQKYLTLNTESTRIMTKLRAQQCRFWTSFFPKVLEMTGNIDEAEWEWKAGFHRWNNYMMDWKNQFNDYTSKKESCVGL
Assay: Inhibition of human BuChE using BTCI as substrate incubated for 33 mins by Ellman's method
Experimental Endpoint: IC50 (µM)

smiles_repr=CCN(C)C(=O)Oc1ccc(C(=O)N2CCC(Cc3ccccc3)CC2)cc1OC numeric_value=0.834

###

Experiment: Efflux ratio of apparent permeability across basal to apical side over apical to basal side in human Caco-2 cells at 25 uM incubated for 120 mins by UPLC-MS/MS analysis
Assay type: ADME, cell-based
Experimental Endpoint: efflux ratio at 2 h, 25 µM

smiles_repr=CCN(C)C(=O)Oc1ccc(C(=O)N2CCC(Cc3ccccc3)CC2)cc1OC result=0.64

###

Assay: Inhibition of human pancreatic lipase using DDAO-ol as substrate preincubated for 3 mins followed by substrate addition by fluorescence based assay
pIC50: −log10 of the molar value.
Experimental Endpoint: pIC50

smiles_repr=CCN(C)C(=O)Oc1ccc(C(=O)N2CCC(Cc3ccccc3)CC2)cc1OC result="< 5.00"

###

Biological target: Dipeptidyl peptidase 4 (Homo sapiens, UniProt P27487)
Sequence (P27487 whole entry): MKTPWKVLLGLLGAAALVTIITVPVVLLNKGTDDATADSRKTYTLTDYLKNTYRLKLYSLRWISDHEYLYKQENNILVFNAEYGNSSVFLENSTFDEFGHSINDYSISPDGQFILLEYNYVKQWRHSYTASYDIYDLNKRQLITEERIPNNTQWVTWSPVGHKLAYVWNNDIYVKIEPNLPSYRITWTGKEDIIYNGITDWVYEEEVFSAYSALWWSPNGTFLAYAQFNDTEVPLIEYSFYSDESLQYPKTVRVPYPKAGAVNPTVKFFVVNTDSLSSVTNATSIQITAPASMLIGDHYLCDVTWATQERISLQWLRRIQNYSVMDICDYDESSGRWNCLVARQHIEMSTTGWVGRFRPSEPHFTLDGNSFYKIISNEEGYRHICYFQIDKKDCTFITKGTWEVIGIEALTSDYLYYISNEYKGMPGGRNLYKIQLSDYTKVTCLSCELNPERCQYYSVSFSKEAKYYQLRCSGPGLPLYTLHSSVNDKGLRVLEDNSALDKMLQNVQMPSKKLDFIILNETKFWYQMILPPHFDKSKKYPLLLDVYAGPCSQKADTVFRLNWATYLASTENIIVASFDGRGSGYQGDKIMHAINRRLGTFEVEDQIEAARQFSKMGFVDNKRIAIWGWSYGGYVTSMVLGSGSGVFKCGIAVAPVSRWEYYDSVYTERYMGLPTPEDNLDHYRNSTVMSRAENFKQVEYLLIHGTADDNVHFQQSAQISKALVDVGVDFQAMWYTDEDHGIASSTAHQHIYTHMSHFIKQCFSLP
Assay: Inhibition of human serum DPP-IV using GP-BAN as substrate preincubated for 3 mins followed by substrate addition by fluorescence based assay
pIC50: −log10 of the molar value.
Experimental Endpoint: pIC50

smiles_repr=CCN(C)C(=O)Oc1ccc(C(=O)N2CCC(Cc3ccccc3)CC2)cc1OC experimental_endpoint=pIC50 result="< 5.00"

###

Target: Cholinesterase (Homo sapiens)
Test: Inhibition of human BuChE using BTCI as substrate incubated for 3 mins by Ellman's method
Experimental Endpoint: IC50

smiles_repr=CCN(C)C(=O)Oc1ccc(C(=O)N2CCC(Cc3ccccc3)CC2)cc1OC result="3.06 µM"

###

Molecular target: Palmitoleoyl-protein carboxylesterase NOTUM (Homo sapiens, UniProt Q6P988)
Sequence (Q6P988 whole entry): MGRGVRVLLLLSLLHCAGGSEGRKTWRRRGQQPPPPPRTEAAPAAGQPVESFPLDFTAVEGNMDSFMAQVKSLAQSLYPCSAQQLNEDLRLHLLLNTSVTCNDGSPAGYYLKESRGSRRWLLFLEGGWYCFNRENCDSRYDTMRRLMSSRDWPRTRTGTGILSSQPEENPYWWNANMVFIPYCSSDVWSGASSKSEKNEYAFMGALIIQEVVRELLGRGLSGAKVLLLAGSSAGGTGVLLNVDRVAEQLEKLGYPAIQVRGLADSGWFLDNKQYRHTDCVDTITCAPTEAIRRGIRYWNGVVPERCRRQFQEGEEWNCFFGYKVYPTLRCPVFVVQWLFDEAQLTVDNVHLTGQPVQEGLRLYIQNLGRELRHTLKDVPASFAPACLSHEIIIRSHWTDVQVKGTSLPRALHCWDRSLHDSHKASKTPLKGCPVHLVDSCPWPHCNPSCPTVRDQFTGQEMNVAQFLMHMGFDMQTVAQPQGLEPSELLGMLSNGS
Experimental Endpoint: IC50

smiles_repr=CCN(C)C(=O)Oc1ccc(C(=O)N2CCC(Cc3ccccc3)CC2)cc1OC study_system="Palmitoleoyl-protein carboxylesterase NOTUM (Homo sapiens, UniProt Q6P988)" experimental_endpoint=IC50 result="> 10 µM"
